target: T1, TNF-alpha (human, UniProt P01375 77-233); assay: phage ELISA
T1 construct: also called TNFα; TNF-α
T1 sequence (P01375 77-233 limits assumed): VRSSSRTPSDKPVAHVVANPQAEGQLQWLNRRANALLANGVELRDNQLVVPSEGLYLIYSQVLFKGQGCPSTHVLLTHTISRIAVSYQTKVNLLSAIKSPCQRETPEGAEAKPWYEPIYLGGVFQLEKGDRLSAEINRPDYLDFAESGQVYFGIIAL
measure: binding result

I078H08 (scFv) scFv: QVQLVQSAAEVKKPGASVKVSCKASGYTFTSYGISWVRQAPGQGLEWMGWISAYNGNTNYAQKLQGRVTMTTDTSTSTAYMELRSLRSDDTAVYYCARVYYDILTGYNLFFDYWGRGTTVTVSSGGGGSGGGGSGGGGSQSVLTQPASVSGSPGQSITISCTGTSSDVGGYNYVSWYQQHPGKAPKLMIYEGSKRPSGVSNRFSGSKSGNTASLTISGLQAEDEADYYCSSYTTRSTRVFGGGTKLTVLG: no binding
I061H01 (scFv, also called 1061H01) scFv: QVQLVQSGGGLVKPGGSLRLSCAASGFTFSNAWMSWVRQAPGKGLQWVGRIKSKTDGGTTDYAAPVKGRFTISRDDSKNTLYLQMNSLKTEDTAVYYCTTFNPTYDILTGYYIGGYFQHWGQGTMVTVSSGGGGSGGGGSGGGGSQSVLTQPASVSGSPGQSITISCTGTSSDVGGYNYVSWYQQHPGKAPKLMIYEGSKRPSGVSNRFSGSKSGNTASLTISGLQAEDEADYYCSSYTTRSTRVFGGGTQLTVLG: no binding
